Items are presented alongside their recorded OD450 at 0.53 nM.
Biological target: biotinylated labeled human GPC3 protein (produced in-house) (human, UniProt P51654 25-559, limits assumed, biotinylated (Dojindo, Cat. No. LK03); sites not stated)
Test: ELISA, biotinylated human GPC3 protein
Numeric answer only, unit OD450 assumed.

Consider the worked cases shown below.
Briefly, OD450 at 0.53 nM measured for hAb007LH3L1a (antibody, human IgG1, V domains shown, Humanized F3.81.19; VH H3 + VL L1a; expressed as human IgG1) VH: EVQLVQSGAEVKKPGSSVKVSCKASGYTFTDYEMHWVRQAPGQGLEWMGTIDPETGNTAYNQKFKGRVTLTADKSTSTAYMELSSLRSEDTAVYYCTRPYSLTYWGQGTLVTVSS VL: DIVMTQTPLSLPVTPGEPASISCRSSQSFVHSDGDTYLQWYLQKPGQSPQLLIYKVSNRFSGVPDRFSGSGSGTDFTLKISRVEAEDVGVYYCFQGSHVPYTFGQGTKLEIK : 1.04

Briefly, OD450 at 0.53 nM measured for hAb001H2L1a (antibody, human IgG1, V domains shown, Humanized F2.169.2; VH H2 + VL L1a; expressed as human IgG1) VH: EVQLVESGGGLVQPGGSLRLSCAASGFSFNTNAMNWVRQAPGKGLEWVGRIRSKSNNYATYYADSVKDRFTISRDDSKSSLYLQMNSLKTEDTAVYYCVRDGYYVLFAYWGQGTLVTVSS VL: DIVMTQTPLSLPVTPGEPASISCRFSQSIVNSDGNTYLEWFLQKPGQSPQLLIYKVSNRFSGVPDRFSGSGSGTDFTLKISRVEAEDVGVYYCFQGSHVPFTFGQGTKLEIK : 2.27

Consider the record given below.
Briefly, OD450 at 0.53 nM measured for hAb001H1L1 (antibody, human IgG1, V domains shown, Humanized F2.169.2; VH H1 + VL L1; expressed as human IgG1) VH: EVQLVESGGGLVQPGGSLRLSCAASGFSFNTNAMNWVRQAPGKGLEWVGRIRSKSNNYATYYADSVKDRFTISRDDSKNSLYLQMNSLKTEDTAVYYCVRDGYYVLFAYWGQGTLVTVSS VL: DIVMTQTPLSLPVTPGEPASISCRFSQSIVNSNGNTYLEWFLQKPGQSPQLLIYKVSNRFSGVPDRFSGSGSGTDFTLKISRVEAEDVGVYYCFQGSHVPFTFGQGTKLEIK : 2.64
